# TESTED_TARGET: yeast Gal4-DNA binding domain fused to the ligand binding domain of human RORγ (Homo sapiens)
# Construct: host or cells: HEK293t
# Sequence (P51449 269-508 limits assumed): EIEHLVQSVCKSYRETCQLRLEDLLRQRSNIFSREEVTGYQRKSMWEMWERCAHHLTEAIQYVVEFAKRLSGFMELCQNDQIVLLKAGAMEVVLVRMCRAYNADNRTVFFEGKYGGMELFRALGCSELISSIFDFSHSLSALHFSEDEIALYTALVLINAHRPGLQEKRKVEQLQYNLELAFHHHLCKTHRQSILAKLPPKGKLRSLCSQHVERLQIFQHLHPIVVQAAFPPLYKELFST
# EXPERIMENTAL_DETAILS: RORγ Reporter Assay (Gal4)
# Format: cell-based
# RECORDED_CONDITIONS: RORγ Reporter Assay (Gal4) at 0.1 μM; values given as lower bounds of ranges
# Method: The activity of the compounds was evaluated using a Fluorescence Polarization (FP) Assay and, in most cases, a Th17 Assay and/or RORγ Reporter assay (also referred to as Gal4 assay). The FP assay is an in vitro assay monitoring binding within the ligand binding pocket. The RORγ and the Th17 assays are both cell-based assays monitoring functional activity of the compound assayed. […]
Parameter: Gal4 activity range @ 0.1 μM (% inhibition). Scope: all listed entries.

[
  {
    "MOLECULE": "COc1ccc(C2CCCN2c2ncnc(NCc3ccc(CC(N)=O)cc3)c2F)c(OC)c1 (stereo not shown)",
    "RECORDED_VALUE": ">20 % inhibition"
  },
  {
    "MOLECULE": "OC1CCCCC1CNc1ncnc(N2CCC[C@@H]2c2ccc(C(F)(F)F)cc2)c1F (stereo partly shown)",
    "RECORDED_VALUE": ">20 % inhibition"
  },
  {
    "MOLECULE": "Fc1c(NCc2ccc(Cn3cncn3)cc2)ncnc1N1CCCC1c1ccc(C(F)(F)F)cc1 (stereo not shown)",
    "RECORDED_VALUE": ">50 % inhibition"
  }
]

Qu. Could you tell me which Gal4 activity range @ 0.1 μM (% inhibition) is on file for Cc1ccc(C2CCCN2c2ncnc(NCc3ccc(CC(N)=O)cc3)c2F)cc1 (stereo not shown) ?
Ans. >20 % inhibition

---

# TESTED_TARGET: human RORγt (Ligand Binding Domain) (Homo sapiens)
# Construct: purchased Crelux (Planegg, Germany) batch no PC5032-1
# Sequence (P51449 269-508 limits assumed): as above
# EXPERIMENTAL_DETAILS: Fluorescence Polarization (FP) Assay
# RECORDED_CONDITIONS: Fluorescence Polarization (FP) Assay; values given as upper bounds of activity ranges; read-out: FP activity range
pIC50: −log10 of the molar value.
Measured pIC50 accompanies every entry in the list below.

Examples with their reported pIC50 follow.
[
  {
    "MOLECULE": "Fc1c(NCC2CCCCO2)ncnc1N1CCC[C@@H]1c1ccc(C(F)(F)F)cc1 (some centres unmarked)",
    "pIC50": "> 5.00"
  },
  {
    "MOLECULE": "COCCNS(=O)(=O)c1ccc(CNc2ncnc(N3CCC[C@@H]3c3ccc(C(F)(F)F)cc3)c2F)cc1",
    "pIC50": "> 6.30"
  },
  {
    "MOLECULE": "Fc1c(NCc2ccc(C(F)(F)F)nc2)ncnc1N1CCCC1c1ccc(C(F)(F)F)cc1 (centres unmarked)",
    "pIC50": "> 5.70"
  },
  {
    "MOLECULE": "NC(=O)Cc1ccc(Cn2ccc3c(N4CCOC[C@@H]4c4ccc(C(F)(F)F)nc4)ncnc32)cc1",
    "pIC50": "> 6.30"
  },
  {
    "MOLECULE": "NC(=O)Cc1ccc(CNc2ncnc(N3C[C@H](F)C[C@H]3c3ccc(C(F)(F)F)cc3)c2F)cc1 (racemic)",
    "pIC50": "> 5.70"
  }
]

Qu. # query: pIC50 | item NC(=O)[C@@H](Cc1cc(F)c(F)cc1F)Nc1ncnc(N2CCCC2c2nc3ccccc3s2)c1F (some centres unmarked) | system: human RORγt (Ligand Binding Domain) (Homo sapiens)
Ans. > 6.30

Qu. Form: Entry = CC(=O)N1CCC(CNc2ncnc(N3CCC[C@@H]3c3ccc(C(F)(F)F)cc3)c2F)CC1 | System = human RORγt (Ligand Binding Domain) (Homo sapiens) | pIC50 = ____
Ans. > 6.30

Qu. Which pIC50 is reported with human RORγt (Ligand Binding Domain) (Homo sapiens) for this entry: O=S(=O)(O)c1ccc(CNc2ncnc(N3CCC[C@@H]3c3ccc(C(F)(F)F)cc3)c2F)cc1 ?
Ans. > 6.30
